Exercise: for every item that follows, state its recorded polymerase ribozyme fitness (log ratio).
B1: TPR 5TU (parent)
chain: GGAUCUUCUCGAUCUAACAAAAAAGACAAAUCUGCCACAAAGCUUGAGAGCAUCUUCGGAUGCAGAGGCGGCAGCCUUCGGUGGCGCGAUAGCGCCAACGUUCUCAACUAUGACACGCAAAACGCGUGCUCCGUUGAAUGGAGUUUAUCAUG

variants of: B1; experiment: polymerase ribozyme fitness, log enrichment relative to wild type (log ratio); higher = more active; in vitro selection for triplet polymerase activity
Variants at the floor of the assay were thinned out.

INSERT INTO assay_data (residue_change, test_value) VALUES
  ('C32G C38U G58A U82A C96A U104G A110C G133A U139A G152U', '≤ -4.2'),
  ('A20C G94A G136U', -3.83),
  ('G74C U90C A91C U104G U130A', '≤ -4.2'),
  ('A19G A98U A115U A120U', -2.62),
  ('U9A C76U C85U C132U G133C', '≤ -4.2');

Fill in polymerase ribozyme fitness (log ratio) for each of the 4 variants listed.
1. C85G C125U
2. A47U A60C C103G A107G
3. A40U U55G C95U C105G C116G
4. A52G U61G A73G

Key:
1: -3.35; 2: ≤ -4.2; 3: -3.94; 4: -2.84

Hi! Can you tell me polymerase ribozyme fitness (log ratio) for each of these variants?
1. A22C U61C G80A A119U C125A
2. G50A C57A C76G C93G
3. A29G C105G U146G
4. A30C C79G C85U A106U
5. U55A G84U G152C

Key:
1. -2.69
2. ≤ -4.2
3. ≤ -4.2
4. ≤ -4.2
5. -3.48

Every entry's value here was drawn from the RNAGym collection of RNA variant scans (doi:10.1073/pnas.2313332121).
